- assayName: Pharmacokinetic study of RXFP2 mAbs in rat
- Format: in vivo, Wistar Han rats
- cond: male Wistar Han rats, 1 mg/kg s.c., n = 3, mean ± SD
Would you kindly list Tmax for each of these molecules?
One number for each entry, in h.

1G1: RXFP2 monoclonal antibody from hybridoma, recombinantly expressed in a rat IgG2b backbone (antibody, V domains shown) VH: EVQLQQSGPELVKPGASVKMSCKASGYTFTDYNMHWVKQKPGQGLEWIGYINPYNDGTEYNEKFKGKATLTSDKSSSTAYMDLSSLTSEDSAVYYCARGLWFAMNYWGQGTSVTVSS VL: DIQMTQSSSSFSVSLGDRVTITCKASEDIYNRLAWYQQKPGNTPRLLISGATILETGVPSRFSGSGSGKDYTLSIISLQTEDVATYYCQQYWIIPPTFGGGTKLEIK :: 120
4G6: Human/rat cross-reactive RXFP2 monoclonal antibody, rat IgG2b backbone; binds the LDLa domain (antibody, V domains shown) VH: EVQLQQSGPELVKPGASVKLSCKASGYTFTSYVMHWVKQKPEQGLEWIGYKNPSNDGIKYNEKFKGKATLTSDKSSNIAYMELFSLTSEDSAVYYCARSDFGSVWAMDYWGQGTSVTVSS VL: SIVMTQTPKFLLVSAGDRVTITCKASQSVNDDIVWYQQKPGQSPKLLIYYASNRYTGVPDRFTGSGYGTDFTFTISTVQAGDLAVYFCQQDYSSPFTFGSGTKLEIK :: 224
1F2: RXFP2 monoclonal antibody from hybridoma, recombinantly expressed in a rat IgG2b backbone (antibody, V domains shown) VH: QVQLKQSGPGLVQPSQSLSITCTVSGFSLTAYGVNWVRQSPGKGLEWLGVIWSGGNTDYNAPFISRLSITKDNSKSQVFFKMNSLEADDTAIYYCARAKGYYAMDYWGQGTSVTVSS VL: DIQMTQSPASLSVSVGESVTITCRATENIYSNLVWYQQKQGQSPQLLVYAVTSLADGVPSRFSGSGSGTQYSLKINSLQSEDFGTYYCQHFWGTPYTFGGGTKLEIK :: 120

Tmax measured on 3F3: RXFP2 monoclonal antibody from hybridoma, recombinantly expressed in a rat IgG2b backbone (antibody, V domains shown) VH: QVQLQQPGSVLVRPGASVKLSCKASGYIFTSYWMHWVKQRPGQGLEWIGEIYPNSGRTSYNEKFKGKATVTVDTSSSTAYVDLSSLTSEDSAVYYCASGGHWFAYWGQGTLVTVSA VL: DIQMTQSSSSFSVSLGDRVTITCKASEDIYNRLAWYQQKPGNAPRLLISGATSLEAGVPSRFSGSGSGKDYTLSITSLQTEDVSTYYCQQYWITPYTFGGGTKLEIK = 168
